Listing: IC50 of selected compounds
# measurement-target: haematopoietic prostaglandin D synthase (H-PGDS) (Homo sapiens, UniProt O60760)
# Construct: Full length human H-PGDS cDNA (Invitrogen Ultimate ORF 10H13026) was amplified by PCR; 6-His (N); TEV protease cleavage site (N); made in house; host or cells: E. coli BL21 (DE3*), vector pET22b+
# Sequence (O60760 whole entry): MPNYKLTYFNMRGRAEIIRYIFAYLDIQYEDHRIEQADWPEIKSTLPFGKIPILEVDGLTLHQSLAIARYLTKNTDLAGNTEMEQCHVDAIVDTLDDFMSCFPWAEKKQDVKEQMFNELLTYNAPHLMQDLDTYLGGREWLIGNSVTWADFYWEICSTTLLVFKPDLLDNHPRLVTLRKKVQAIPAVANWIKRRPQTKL
# measurement-notes: H-PGDS RapidFire high throughput mass spectrometry assay (conversion of PGH2 to PGD2)
# Assay type: biochemical
# run-parameters: 10 nM H-PGDS, PGH2 formed in situ by COX-2 from arachidonic acid; read-out: Potency Range (mean pIC50) (converted)
measured-endpoint: IC50

[[record]]
compound = "CC(C)(O)[C@H]1CC[C@H](NC(=O)[C@H]2C[C@H](Oc3cccc4c(Br)coc34)C2)CC1"
result = "10 to 79.4 nM"

[[record]]
compound = "O=C(Nc1ccccn1)[C@H]1C[C@H](Oc2cccc3cccnc23)C1"
result = "100 to 1000 nM"

[[record]]
compound = "CCOC(=O)c1csc(NC(=O)[C@H]2C[C@H](Oc3cccc4cccnc34)C2)n1"
result = "< 10 nM"

[[record]]
compound = "CCC(=O)C1CC2(CC(NC(=O)[C@H]3C[C@H](Oc4cc(F)cc5scnc45)C3)C2)C1 (stereo partly shown)"
result = "10 to 79.4 nM"

[[record]]
compound = "CN(C)c1ccnc(N2CC(NC(=O)[C@H]3C[C@H](Oc4cccc5scnc45)C3)C2)n1"
result = "10 to 79.4 nM"

[[record]]
compound = "O=C(NC1CN(c2ncccn2)C1)[C@H]1C[C@H](Oc2cc(F)ccc2OC(F)F)C1"
result = "10 to 79.4 nM"

[[record]]
compound = "CC(=O)N1CCCC(NC(=O)N2CC(Oc3cccc4scnc34)C2)C1 (racemic)"
result = "100 to 1000 nM"

[[record]]
compound = "CC(=O)c1csc(NC(=O)[C@H]2C[C@H](Oc3ccccc3OC(F)F)C2)n1"
result = "10 to 79.4 nM"

[[record]]
compound = "CN(C)c1nccc(N2CC(NC(=O)[C@H]3C[C@H](Oc4cccc5scnc45)C3)C2)n1"
result = "100 to 1000 nM"

[[record]]
compound = "CC(C)(O)[C@H]1CC[C@H](NC(=O)[C@H]2C[C@H](Oc3cc(F)cc4ccoc34)C2)CC1"
result = "10 to 79.4 nM"

[[record]]
compound = "CC(C)(O)[C@H]1CC[C@H](NC(=O)[C@H]2C[C@H](Oc3cc(Cl)ccc3OC(F)F)C2)CC1"
result = "10 to 79.4 nM"

[[record]]
compound = "Cc1nc2c(OC3CN(C(=O)N[C@H]4CC[C@H](C(C)(C)O)CC4)C3)cccc2s1"
result = "1260 to 2000 nM"

[[record]]
compound = "CCOC(=O)c1nnc(NC(=O)[C@H]2C[C@H](Oc3cccc4cccnc34)C2)[nH]1"
result = "100 to 1000 nM"

[[record]]
compound = "O=C(Nc1nc(C2CC2)ns1)N1CC(Oc2cccc3scnc23)C1"
result = "< 10 nM"

[[record]]
compound = "O=C(Nc1cccc(N2CCOCC2)c1)[C@H]1C[C@H](Oc2cccc3scnc23)C1"
result = "10 to 79.4 nM"

[[record]]
compound = "O=C(NC1CCCOC1)N1CC(Oc2cccc3scnc23)C1 (racemic)"
result = "100 to 1000 nM"

